test system: S. cerevisiae tim10 strain, luminescence counterscreen; assay: TIM10 strain luminescence inhibitors – S. cerevisiae, uHTS hits, counter-screen for tim23-1 inhibitor project, dose response (AID 504672);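 note: yeast grew roughly 22 hours at 25 °C before the luminescence read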
Activity calls are given as the source filed them. Cut-off read from the data, not from the text of the source: active = IC50 below about 71 µM; inactive = the rest.
Measure name: IC50

IC50 of COc1ccc(C2=NNC(c3cccs3)=Nc3ccc(OC)cc32)cc1 , assay on S. cerevisiae tim10 strain, luminescence counterscreen, is 9.29 µM

IC50 of O=c1c2ccccc2nc(-c2ccc([N+](=O)[O-])cc2)n1O , assay on S. cerevisiae tim10 strain, luminescence counterscreen, is 4.86 µM

IC50 of COc1cc(/C=N/NC(=O)c2ccc(N)cc2)ccc1OC(=O)c1cccc(C)c1 , assay on S. cerevisiae tim10 strain, luminescence counterscreen, is 7.44 µM

IC50 of Cc1occc1C(=O)N/N=C/C(Br)=C/c1ccccc1 , assay on S. cerevisiae tim10 strain, luminescence counterscreen, is 11.5 µM

IC50 of COc1ccc(OC)c(-c2csc(NC(=O)Cc3ccc(F)cc3)n2)c1 , assay on S. cerevisiae tim10 strain, luminescence counterscreen, is 27.7 µM

IC50 of CCCCn1c(N)c(N(CCC(C)C)C(=O)c2ccc3c(c2)OCO3)c(=O)[nH]c1=O , assay on S. cerevisiae tim10 strain, luminescence counterscreen, is > 100 µM (inactive)

IC50 of CC(=O)Nc1cccc(-c2cc(-c3c(Cl)cccc3Cl)no2)c1 , assay on S. cerevisiae tim10 strain, luminescence counterscreen, is 8.63 µM

IC50 of O=C(Nc1ccc2c(c1)OCCO2)c1cccc(Cl)c1 , assay on S. cerevisiae tim10 strain, luminescence counterscreen, is 21.5 µM

IC50 of O=c1cc(C(Cl)(Cl)Cl)oc2c1ccc1ccccc12 , assay on S. cerevisiae tim10 strain, luminescence counterscreen, is 63.8 µM

IC50 of O=C(N/N=C/C=C\c1ccco1)c1cccs1 , assay on S. cerevisiae tim10 strain, luminescence counterscreen, is 70 µM

---

test system: S. cerevisiae tim10 strain, luminescence counterscreen; experiment: TIM10 strain luminescence inhibitors – S. cerevisiae, uHTS hits, counter-screen for tim23-1 inhibitor project, dose response (AID 504672);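 note: yeast grew roughly 22 hours at 25 °C before the luminescence read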
Activity calls are given as the source filed them. No stated cut-off is given here; in the data, active means IC50 below about 71 µM; inactive means the rest.
Respond only with the outcome that fits, drawn from yes = active, no = inactive

Record excerpt, results attached:
Data request: Dear all, I need the recorded test outcome for O=C1/C(=C/c2cccs2)COc2ccccc21 , thank you.
Data returned: yes

Data request: Dear all, I need the recorded test outcome for CCOC(=O)c1cccnc1SCc1cc(=O)n2ccccc2n1 , thank you.
Data returned: no

Data request: Dear all, I need the recorded test outcome for CCCc1nc2c(c(=O)c3ccccc3n2C)c(=O)n1C1CCCCCC1 , thank you.
Data returned: yes

Data request: Dear all, I need the recorded test outcome for Brc1ccc(OCc2nnnn2-c2ccccc2)cc1 , thank you.
Data returned: yes

Data request: Dear all, I need the recorded test outcome for O=C(/C(=C/O)N=Nc1ccccc1)c1ccco1 , thank you.
Data returned: yes

Continuing:
Data request: Dear all, I need the recorded test outcome for CC1(C)CC(=O)C=C(c2cccc(Cl)c2O)C1 , thank you.
Data returned: yes

Data request: Dear all, I need the recorded test outcome for COc1cccc(CNn2c(-c3cccc(C)c3)nc3ccccc3c2=O)c1O , thank you.
Data returned: yes

Data request: Dear all, I need the recorded test outcome for Cc1ccc(Nc2nc(-c3cccnc3)nc3ccccc23)cc1 , thank you.
Data returned: yes

Data request: Dear all, I need the recorded test outcome for CC(C)(C)c1ccc(OCC(=O)NCc2ccco2)c(Br)c1 , thank you.
Data returned: yes

Data request: Dear all, I need the recorded test outcome for CC(C)Oc1cc(O)c2c(=O)c(-c3ccc(O)cc3)coc2c1 , thank you.
Data returned: yes

Data request: Dear all, I need the recorded test outcome for Cc1ccc2[nH]cc(C(=O)CCl)c2c1 , thank you.
Data returned: yes

Data request: Dear all, I need the recorded test outcome for CCOc1ccc(N=C(C)C2=C(O)c3ccccc3C2=O)cc1 , thank you.
Data returned: yes
